Molecular target: BRM (Homo sapiens, UniProt P51531)
Construct: made in house; host or cells: High Five insect cells
Sequence (P51531 whole entry): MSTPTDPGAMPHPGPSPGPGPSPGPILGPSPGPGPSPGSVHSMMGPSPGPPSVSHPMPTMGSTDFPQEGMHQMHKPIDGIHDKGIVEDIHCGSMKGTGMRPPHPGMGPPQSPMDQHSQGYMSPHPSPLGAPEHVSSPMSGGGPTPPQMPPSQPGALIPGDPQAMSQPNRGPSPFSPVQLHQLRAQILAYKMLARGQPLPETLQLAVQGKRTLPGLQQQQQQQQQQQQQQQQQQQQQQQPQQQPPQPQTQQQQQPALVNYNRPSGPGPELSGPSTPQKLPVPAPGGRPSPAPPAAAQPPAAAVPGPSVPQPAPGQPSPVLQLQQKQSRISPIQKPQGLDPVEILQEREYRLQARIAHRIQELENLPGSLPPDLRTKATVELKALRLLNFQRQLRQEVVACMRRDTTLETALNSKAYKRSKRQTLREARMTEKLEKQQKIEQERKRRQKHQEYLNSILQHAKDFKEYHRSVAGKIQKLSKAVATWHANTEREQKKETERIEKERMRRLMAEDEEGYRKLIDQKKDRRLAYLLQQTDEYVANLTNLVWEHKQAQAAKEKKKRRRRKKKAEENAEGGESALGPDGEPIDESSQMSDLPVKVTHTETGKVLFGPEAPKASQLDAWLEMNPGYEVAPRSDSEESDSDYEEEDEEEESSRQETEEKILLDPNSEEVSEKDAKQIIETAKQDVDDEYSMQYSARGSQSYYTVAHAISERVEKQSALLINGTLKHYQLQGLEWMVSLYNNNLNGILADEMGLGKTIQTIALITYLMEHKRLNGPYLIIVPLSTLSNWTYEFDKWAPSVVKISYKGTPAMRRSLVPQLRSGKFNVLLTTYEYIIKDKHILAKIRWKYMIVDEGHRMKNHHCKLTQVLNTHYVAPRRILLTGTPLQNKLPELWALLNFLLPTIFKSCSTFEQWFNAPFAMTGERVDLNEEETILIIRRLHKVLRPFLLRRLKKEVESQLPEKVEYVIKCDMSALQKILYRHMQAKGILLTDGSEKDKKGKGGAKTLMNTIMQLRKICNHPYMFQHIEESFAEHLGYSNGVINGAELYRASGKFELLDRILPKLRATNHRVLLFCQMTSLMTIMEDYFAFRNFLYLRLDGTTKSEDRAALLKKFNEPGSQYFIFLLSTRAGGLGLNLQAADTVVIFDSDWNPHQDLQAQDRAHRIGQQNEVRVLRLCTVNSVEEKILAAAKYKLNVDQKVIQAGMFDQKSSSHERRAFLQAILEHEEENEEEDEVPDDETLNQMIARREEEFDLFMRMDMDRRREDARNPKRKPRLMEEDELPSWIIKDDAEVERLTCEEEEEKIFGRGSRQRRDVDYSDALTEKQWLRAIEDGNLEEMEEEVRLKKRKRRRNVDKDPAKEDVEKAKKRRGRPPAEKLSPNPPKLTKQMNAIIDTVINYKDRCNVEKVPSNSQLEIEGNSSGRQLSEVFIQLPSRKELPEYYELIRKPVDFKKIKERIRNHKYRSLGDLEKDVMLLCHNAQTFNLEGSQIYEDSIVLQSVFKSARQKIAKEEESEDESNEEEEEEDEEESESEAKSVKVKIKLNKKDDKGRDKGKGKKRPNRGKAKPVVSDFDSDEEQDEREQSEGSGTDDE
Assay: ATPase catalytic activity of BRM, ADP-Glo in vitro biochemical assay
Conditions: selectivity ratio BRG1 IC50 / BRM IC50
Protocol: The ATPase catalytic activity of BRM or BRG-1 was measured by an in vitro biochemical assay using ADP-Glo™ (Promega, V9102). The ADP-Glo™ kinase assay is performed in two steps once the reaction is complete. The first step is to deplete any unconsumed ATP in the reaction. The second step is to convert the reaction product ADP to ATP, which will be utilized by the luciferase to generate luminesce and be detected by a luminescence reader, such as Envision. […]
Metric name: Ratio* (BRG1 IC50 (μM) divided by BRM IC50 (μM))

- Molecule: "O=C(NCc1cc2nc(-c3cccc([C@H]4CC4(F)F)c3)ccc2cn1)c1ccc2c(c1)S(=O)(=O)CCOC2 [Compound 252]"
  System: "BRM (Homo sapiens, UniProt P51531)"
  Measured result: 18.31
- Molecule: "CN1CCN(c2cccc(-c3ccc4cnc(CNC(=O)c5ccc6c(c5)S(=O)(=O)CCOC6)cc4n3)n2)CC1 [Compound 144]"
  System: "BRM (Homo sapiens, UniProt P51531)"
  Measured result: 9.21
- Molecule: "O=C(NCc1cc2nc(-c3ccccc3OC(F)F)ccc2cn1)c1ccc2c(c1)S(=O)(=O)CCOC2 [Compound 250]"
  System: "BRM (Homo sapiens, UniProt P51531)"
  Measured result: 7.17
- Molecule: "C[C@@H]1CN(c2cccc(-c3ccc4cnc(CNC(=O)c5ccc(Cl)c(S(C)(=O)=O)c5)cc4n3)n2)C[C@@H](C)O1 [Compound 177]"
  System: "BRM (Homo sapiens, UniProt P51531)"
  Measured result: 14.02

1 = COCc1ccc(C(=O)NCc2cc3nc(-c4cncc(C5CC5)n4)ccc3cn2)cc1S(C)(=O)=O [Compound 273]
2 = Cn1ccc(-c2cccc(-c3ccc4cnc(CNC(=O)c5ccc6c(c5)S(=O)(=O)CCOC6)cc4n3)c2)n1 [Compound 244]
Prompt line: Compare reported Ratio* (BRG1 IC50 (μM) divided by BRM IC50 (μM)) values for 1 and 2 . Which is lower? Field: selected label. Fill in the label of the entry you choose.
Response line: 2

* * *

Target: BRG-1 (Homo sapiens)
Construct: made in house; host or cells: High Five insect cells
Experiment: ATPase catalytic activity of BRG-1, ADP-Glo in vitro biochemical assay
Conditions: ADP-Glo ATPase assay, 30 nM BRG-1, 400 μM ATP; read-out: BRG1 IC50
Metric name: IC50 (nM)

- Compound: "O=C(NCc1cc2nc(N3CCCc4ccc(OCC5CCOC5)cc43)ccc2cn1)c1ccc2c(c1)S(=O)(=O)CCOC2 (stereo not shown) [Compound 759]"
  Unit text: "nM"
  IC50: 53.3
- Compound: "O=C(NCc1cc2nc(-c3cncc(C(F)(F)F)n3)ccc2cn1)c1ccc2c(c1)S(=O)(=O)CCOC2 [Compound 209]"
  Unit text: "nM"
  IC50: 3620
- Compound: "O=C(NCc1cc2nc(N3CCOc4cc(F)cnc43)ccc2cn1)c1ccc2c(c1)S(=O)(=O)CCOC2 [Compound 737]"
  Unit text: "nM"
  IC50: 227
- Compound: "COc1cc2c(cn1)CCCN2c1ccc2cnc(CNC(=O)c3ccc4c(c3)S(=O)(=O)CCOC4)cc2n1 [Compound 768]"
  Unit text: "nM"
  IC50: 126
- Compound: "COCCc1ccc(C(=O)NCc2cc3nc(-c4cncc(C5CC5)n4)ccc3cn2)cc1S(C)(=O)=O [Compound 207]"
  Unit text: "nM"
  IC50: 5000

P = O=C(NCc1cc2nc(-c3cncc(C4CC4)n3)ccc2cn1)c1cnc2c(c1)S(=O)(=O)CCCC2 [Compound 230]
Q = CNc1cccc(-c2ccc3cnc(CNC(=O)c4ccc5c(c4)S(=O)(=O)CCOC5)cc3n2)n1 [Compound 274]
Prompt line: Hey, which is lower on measured IC50, P or Q ? Give the label of your selection.
Response line: P

* * *

Molecular target: BRG-1 (Homo sapiens, UniProt P51532)
Construct: made in house; host or cells: High Five insect cells
Sequence (P51532 whole entry): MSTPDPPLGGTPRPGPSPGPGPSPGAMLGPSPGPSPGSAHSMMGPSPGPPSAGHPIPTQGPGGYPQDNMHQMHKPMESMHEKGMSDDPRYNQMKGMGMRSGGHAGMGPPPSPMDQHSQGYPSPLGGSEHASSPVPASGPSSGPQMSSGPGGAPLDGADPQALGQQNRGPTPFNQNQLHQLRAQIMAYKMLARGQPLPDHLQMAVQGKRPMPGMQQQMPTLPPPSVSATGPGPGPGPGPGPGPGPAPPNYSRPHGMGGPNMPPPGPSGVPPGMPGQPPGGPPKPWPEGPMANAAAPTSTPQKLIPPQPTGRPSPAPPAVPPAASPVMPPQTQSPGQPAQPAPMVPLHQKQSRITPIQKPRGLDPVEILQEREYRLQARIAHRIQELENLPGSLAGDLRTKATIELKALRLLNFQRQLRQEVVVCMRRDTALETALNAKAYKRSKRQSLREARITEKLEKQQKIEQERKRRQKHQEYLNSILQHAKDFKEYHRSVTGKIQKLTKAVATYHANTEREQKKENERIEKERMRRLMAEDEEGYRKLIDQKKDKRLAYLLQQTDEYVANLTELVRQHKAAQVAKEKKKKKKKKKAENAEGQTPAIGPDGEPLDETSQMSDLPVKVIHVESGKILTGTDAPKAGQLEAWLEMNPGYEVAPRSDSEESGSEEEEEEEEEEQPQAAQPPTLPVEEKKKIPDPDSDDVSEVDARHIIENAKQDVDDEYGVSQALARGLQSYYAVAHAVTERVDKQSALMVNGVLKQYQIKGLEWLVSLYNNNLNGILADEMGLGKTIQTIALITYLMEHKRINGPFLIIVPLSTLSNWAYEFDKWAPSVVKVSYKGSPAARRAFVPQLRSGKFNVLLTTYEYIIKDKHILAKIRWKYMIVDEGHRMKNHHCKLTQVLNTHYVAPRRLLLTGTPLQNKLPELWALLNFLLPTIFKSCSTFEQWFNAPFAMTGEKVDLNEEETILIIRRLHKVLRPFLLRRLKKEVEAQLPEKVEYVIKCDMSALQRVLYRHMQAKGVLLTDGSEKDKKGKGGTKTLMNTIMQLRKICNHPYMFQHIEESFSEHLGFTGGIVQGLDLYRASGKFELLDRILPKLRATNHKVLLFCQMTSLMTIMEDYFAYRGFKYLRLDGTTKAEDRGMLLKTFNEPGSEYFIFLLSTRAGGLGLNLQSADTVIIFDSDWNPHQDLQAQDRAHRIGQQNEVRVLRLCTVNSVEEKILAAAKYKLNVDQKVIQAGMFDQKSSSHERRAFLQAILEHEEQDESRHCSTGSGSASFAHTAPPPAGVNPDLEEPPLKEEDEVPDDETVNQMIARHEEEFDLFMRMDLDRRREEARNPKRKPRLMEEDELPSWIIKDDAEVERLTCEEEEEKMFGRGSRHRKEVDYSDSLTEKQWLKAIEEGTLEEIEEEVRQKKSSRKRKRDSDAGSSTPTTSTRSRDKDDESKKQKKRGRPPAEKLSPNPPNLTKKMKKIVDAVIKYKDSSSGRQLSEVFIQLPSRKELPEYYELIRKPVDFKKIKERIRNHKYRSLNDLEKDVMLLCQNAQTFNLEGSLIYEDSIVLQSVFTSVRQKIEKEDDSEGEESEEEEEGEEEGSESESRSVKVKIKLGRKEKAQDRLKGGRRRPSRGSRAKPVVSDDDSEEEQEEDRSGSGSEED
Assay: ATPase catalytic activity of BRG-1, ADP-Glo in vitro biochemical assay
Settings: ADP-Glo ATPase assay, 30 nM BRG-1, 400 μM ATP; read-out: BRG1 IC50
Procedure: The ATPase catalytic activity of BRM or BRG-1 was measured by an in vitro biochemical assay using ADP-Glo™ (Promega, V9102). The ADP-Glo™ kinase assay is performed in two steps once the reaction is complete. The first step is to deplete any unconsumed ATP in the reaction. The second step is to convert the reaction product ADP to ATP, which will be utilized by the luciferase to generate luminesce and be detected by a luminescence reader, such as Envision. […]
Metric name: IC50 (nM)

P = CCO[C@H]1CCOc2c(-c3ccc4cnc(CNC(=O)c5ccc6c(c5)S(=O)(=O)CCOC6)cc4n3)cccc21 [Compound 66]
Q = O=C(NCc1cc2nc(N3CCCc4cccnc43)ccc2cn1)c1ccc2c(c1)S(=O)(=O)CCOC2 [Compound 150]
Prompt line: So which one has the bigger IC50 here, P or Q ? Give the label of your selection.
Response line: P

I = O=C(NCc1cc2nc(N3CCOc4cc(C5(C(F)F)CC5)cnc43)ccc2cn1)c1ccc2c(c1)S(=O)(=O)CCOC2 [Compound 847]
II = Cn1ccc2c(-c3ccc4cnc(CNC(=O)c5ccc6c(c5)S(=O)(=O)CCOC6)cc4n3)cccc21 [Compound 245]
III = O=C(NCc1cc2nc(N3CCOc4ccc(C5CCC5)nc43)ccc2cn1)c1ccc2c(c1)S(=O)(=O)CCOC2 [Compound 722]
Prompt line: Let's sort these by IC50, smallest first. Go ahead? Answer with the labels in sequence, matching the requested order.
Response line: II, I, III

* * *

Molecular target: BRG-1 (Homo sapiens)
Construct: made in house; host or cells: High Five insect cells
Assay: ATPase catalytic activity of BRG-1, ADP-Glo in vitro biochemical assay
Conditions: ADP-Glo ATPase assay, 30 nM BRG-1, 400 μM ATP; read-out: BRG1 IC50
Metric name: IC50 (nM)

- Structure smiles string: "O=C(NCc1cc2cc(N3CCCc4cc(-c5cn[nH]c5)ccc43)ccc2cn1)c1ccc2c(c1)S(=O)(=O)CCOC2"
  System: "BRG-1 (Homo sapiens)"
  IC50 (nM): 30.3
- Structure smiles string: "O=C(NCc1cc2nc(-c3ccccc3OC(F)F)ccc2cn1)c1ccc2c(c1)S(=O)(=O)CCOC2"
  System: "BRG-1 (Homo sapiens)"
  IC50 (nM): 751
- Structure smiles string: "C[C@H]1CN(c2cccc(-c3ccc4cnc(CNC(=O)c5ccc(Cl)c(S(C)(=O)=O)c5)cc4n3)n2)C[C@H](C)O1"
  System: "BRG-1 (Homo sapiens)"
  IC50 (nM): 383

1 = COCc1cc(F)c2c(c1)OCCN2c1ccc2cnc(CNC(=O)c3ccc4c(c3)S(=O)(=O)CCOC4)cc2n1
2 = O=C(NCc1cc2nc(-c3cccc([C@@H]4CC4(F)F)c3)ccc2cn1)c1ccc2c(c1)S(=O)(=O)CCOC2
3 = CCN(CC)c1cccc(-c2ccc3cnc(CNC(=O)c4ccc5c(c4)S(=O)(=O)CCOC5)cc3n2)n1
4 = COCCN(C)c1cccc(-c2ccc3cnc(CNC(=O)c4ccc5c(c4)S(=O)(=O)CCOC5)cc3n2)n1
5 = Cc1cc2c(-c3ccc4cnc(CNC(=O)c5ccc(Cl)c(S(C)(=O)=O)c5)cc4n3)cccc2n1C
Prompt line: Rank the items in ascending order with respect to IC50. Give the labels in the order specified.
Response line: 4, 3, 1, 5, 2

I = C[C@@H]1CN(c2cccc(-c3ccc4cnc(CNC(=O)c5ccc6c(c5)S(=O)(=O)CCC5(CC5)O6)cc4n3)n2)C[C@H](C)O1
II = CN(CC1COC1)c1cccc(-c2ccc3cnc(CNC(=O)c4ccc5c(c4)S(=O)(=O)CCOC5)cc3n2)n1
III = C[C@@H]1CN(c2cccc(-c3cnc4cnc(CNC(=O)c5ccc(Cl)c(S(C)(=O)=O)c5)cc4n3)n2)C[C@H](C)O1
IV = CS(=O)(=O)c1cc(C(=O)NCc2cc3nc(-c4cccc(N5CC[C@@H]6COC[C@@H]6C5)n4)ccc3cn2)ccc1Cl
V = COCc1ccc(C(=O)NCc2cc3nc(-c4cccc(N5C[C@@H](C)O[C@@H](C)C5)n4)ccc3cn2)cc1S(C)(=O)=O
Prompt line: Order the items by recorded IC50; the first position goes to the largest value. Put the labels in the order asked and list them.
Response line: I, IV, II, III, V

A = COCCN1CCc2ccc(-c3ccc4cnc(CNC(=O)c5ccc6c(c5)S(=O)(=O)CCOC6)cc4n3)nc2C1
B = COC[C@H](C)S(=O)(=O)c1cccc(C(=O)NCc2cc3nc(-c4cncc(C5CC5)n4)ccc3cn2)c1
C = O=C(NCc1cc2nc(-c3cccc(C4(F)CC(F)(F)C4)n3)ccc2cn1)c1ccc2c(c1)S(=O)(=O)CCOC2
D = CN1CCc2ccc(-c3ccc4cnc(CNC(=O)c5ccc6c(c5)S(=O)(=O)CCOC6)cc4n3)nc21
E = O=C(NCc1cc2nc(N3CCc4cc(F)cnc43)ccc2cn1)c1ccc2c(c1)S(=O)(=O)CCOC2
Prompt line: Place the items in sequence of falling IC50. Labels, requested order.
Response line: B, A, E, C, D
(B: 5000 nM, A: 2880 nM, E: 1220 nM, C: 689 nM, D: 394 nM)

Recorded values, source patent US20230416248A1.
